method_summary: Intravenous
condition: both, human, in vivo, po, AUC0-96, oral methadone; after indinavir
assay_endpoint: AUC(0-t) (ng·h/mL)

• CCC(=O)C(C[C@H](C)N(C)C)(c1ccccc1)c1ccccc1 = 685

* * *

method_summary: Intravenous
condition: both, human, in vivo, po, 11 mg, AUC0-96, oral methadone; control
assay_endpoint: AUC(0-t) (ng·h/mL)

- CCC(=O)C(C[C@H](C)N(C)C)(c1ccccc1)c1ccccc1 [S-methadone]: 688

* * *

method_summary: Intravenous
condition: both, human, in vivo, po, AUC0-∞, oral methadone; after indinavir
assay_endpoint: AUC(0-inf)

- CCC(=O)C(C[C@H](C)N(C)C)(c1ccccc1)c1ccccc1: 805 ng·h/mL

* * *

method_summary: Intravenous
condition: both, human, in vivo, po, 11 mg
assay_endpoint: Cmax

- CCC(=O)C(C[C@H](C)N(C)C)(c1ccccc1)c1ccccc1: 30 ng/mL
